Catalogue of binders with associated binding affinity ratio (IC50 standard/IC50 test)
Target: HLA-B*0702 (Human)
Experiment: competition with 125I-labelled standard peptide for purified HLA, gel filtration
Quantity Name: binding affinity ratio (IC50 standard/IC50 test)

- SPGQRVEF (modifications not checked): 0.0027
- QPEYDLELI (modifications not checked): 0.0001
- LPVCQDHLEFW (modifications not checked): 0.0001
- PPSWDQMWKCL (modifications not checked): 0.0001
- RPDYNPPL (modifications not checked): 0.005
- QPEYDLEL (modifications not checked): 0.0002
- QPGYPWPL (modifications not checked): 0.0006
- SPGEINRVA (modifications not checked): 0.0003
- PPSWDQMW (modifications not checked): 0.0002
- LPVCQDHL (modifications not checked): 0.0005
- QPGYPWPLY (modifications not checked): 0.0001
- NPSVAATLGF (modifications not checked): 0.0001
- NPSVAATL (modifications not checked): 0.0011
- PPPSWDQMW (modifications not checked): 0.0001
